src = patent US10214512B2

Listed here are compounds together with their documented pKi.
molecular target: purified Human plasma Kallikrein (Homo sapiens (Human), UniProt P03952); assay: Kallikrein Assay; assay type: biochemical; conditions: purified Human plasma Kallikrein 0.5 nM; substrate Acetyl-K-P-R-AFC; 50 mM HEPES pH 7.4; Ki from IC50 by Cheng Prusoff
Sequence (P03952 391-638): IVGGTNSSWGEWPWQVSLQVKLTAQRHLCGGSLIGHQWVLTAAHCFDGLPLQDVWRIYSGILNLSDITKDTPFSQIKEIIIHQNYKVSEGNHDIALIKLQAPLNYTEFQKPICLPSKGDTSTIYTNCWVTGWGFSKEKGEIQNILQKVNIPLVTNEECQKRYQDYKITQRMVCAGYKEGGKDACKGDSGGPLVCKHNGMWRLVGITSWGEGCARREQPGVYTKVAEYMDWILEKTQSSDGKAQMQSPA
Sequence (P03952 20-390 partner): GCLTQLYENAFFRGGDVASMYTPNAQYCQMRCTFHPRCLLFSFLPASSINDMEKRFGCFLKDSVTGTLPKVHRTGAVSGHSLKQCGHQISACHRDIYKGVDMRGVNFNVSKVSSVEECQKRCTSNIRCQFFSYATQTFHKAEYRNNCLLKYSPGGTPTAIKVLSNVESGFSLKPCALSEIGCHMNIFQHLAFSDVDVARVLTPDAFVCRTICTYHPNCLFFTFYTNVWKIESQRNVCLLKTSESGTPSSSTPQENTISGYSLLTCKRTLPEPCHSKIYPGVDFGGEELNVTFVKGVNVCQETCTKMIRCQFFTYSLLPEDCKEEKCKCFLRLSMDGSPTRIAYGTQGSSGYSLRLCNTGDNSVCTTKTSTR
pKi here is simply -log10 of the concentration when that concentration is written in mol/L.

compound="C[C@@H]1CCC[C@H](c2ccc(-c3cc(Cl)ccc3-n3cc(Cl)nn3)c[n+]2[O-])c2cccc(c2)-c2c(cnn2C(F)F)NC1=O (single isomer, unassigned)" quantity_kind=pKi value=8.86
compound="COC(=O)Nc1ccc2c(c1)NC(=O)CCCC[C@H](c1ccc(-c3cc(Cl)ccc3OC(F)F)c[n+]1[O-])c1cccc-2c1 (single isomer, unassigned)" quantity_kind=pKi value=8.78
compound="COC(=O)Nc1ccc2c(c1)NC(=O)CC[C@@H](C)C[C@H](c1ccc(-c3c(F)cccc3OC(F)F)c[n+]1[O-])c1nc-2c(C)[nH]1 (single isomer, unassigned)" quantity_kind=pKi value=8.56
compound="COC(=O)Nc1ccc2c(c1)NC(=O)CCCC[C@H](c1ccc(-c3cc(Cl)ccc3-n3cc(Cl)nn3)c[n+]1[O-])c1cccc-2c1 (single isomer, unassigned)" quantity_kind=pKi value=9.44
compound="COC(=O)Nc1ccc2c(c1)NC(=O)C(C)CCCC(c1cc(OC)c(-c3c(F)ccc(Cl)c3F)c[n+]1[O-])c1cccc-2c1 (single isomer, unassigned) [Example 88-d]" quantity_kind=pKi value=8.28

Requested field: pKi. Item: COC(=O)Nc1ccc2c(c1)NC(=O)CCCCC(c1ccc(-c3cc(Cl)ccc3-n3cnnn3)cn1)c1cc-2ncc1F (centres unmarked)
7.92

Requested field: pKi. Item: COC(=O)Nc1ccc2c(c1)NC(=O)CCCC[C@H](c1ccc(-c3c(C(F)F)ccc(Cl)c3F)c[n+]1[O-])c1nc-2c(C)[nH]1 (single isomer, unassigned)
9.14

Requested field: pKi. Item: Cc1[nH]c2nc1-c1cc(F)ccc1NC(=O)CCCC[C@@H]2c1ccc(-c2cc(F)ccc2-n2cnnn2)c[n+]1[O-] (single isomer, unassigned)
7.25

Requested field: pKi. Item: C[C@H]1CCC[C@@H](c2ccc(-c3cc(Cl)ccc3-n3cnnn3)c[n+]2[O-])c2cccc(c2)-c2cc(F)ccc2NC1=O
6.18

Requested field: pKi. Item: COC(=O)Nc1cc(F)c2c(c1)NC(=O)C(C)CCCC(c1ccc(-c3c(F)ccc(Cl)c3F)c[n+]1[O-])c1cccc-2c1 (single isomer, unassigned) [Example 85-c]
8.59

Requested field: pKi. Item: COC(=O)Nc1ccc2c(c1)NC(=O)C1(CCC[C@H](c3ccc(-c4c(F)cccc4OC(F)F)c[n+]3[O-])c3nc-2c(C)[nH]3)CC1 (single isomer, unassigned)
7.43
